tested on: HOP-62 NSCLC; experiment: NCI-60 one-dose screen, 48 h; conditions: 10 µM unless noted
About 83,000 compounds went through this panel and 20% of them were active in at least one assay; those are over-represented in the sample as a whole. The source made the active and inactive calls. How the source made its calls: active means growth percent below 10; inactive means the rest.
Please reply with one of these outcomes: active, inactive

Inquiry: How did this test come out for "COc1ccc2sc3c(NCCCNCCO)nc4ccccc4c3c(=O)c2c1" ?
Reply text: inactive

Inquiry: So what was the verdict on "COc1ccc(/C=C/c2c(C(=O)/C=C/c3ccc(C(F)(F)F)cc3)c(C)nc3ccccc23)cc1" in this test?
Reply text: active

Inquiry: What is the recorded call for this molecule in the test? "c1cc(-c2nnc(SSc3ncnc4nc[nH]c34)o2)ccn1"
Reply text: inactive

Inquiry: Outcome logged for "Fc1cc(-c2nnc3n2NC(=Nc2ccc(Cl)cc2)CS3)c(Cl)cc1Cl" in this assay:
Reply text: inactive

Inquiry: Outcome logged for "N#C/C(=C\c1ccc(F)cc1)n1nc2cccc(F)c2n1" in this assay:
Reply text: inactive

Inquiry: Called result for "N#C/C(=C\c1cccc2cnccc12)n1nnc2cccc(F)c21"
Reply text: inactive

Inquiry: Given C=C1C(=O)O[C@H]2[C@H]1CC/C(COC(=O)C(C)c1ccc(CC(C)C)cc1)=C\CC[C@@]1(C)O[C@@H]21 (stereo partly specified) , state the outcome it received in this test.
Reply text: inactive

Inquiry: Dear colleague, could you share the recorded outcome for COc1cc(C2CC(c3cccc(Br)c3)=NN2C(C)=O)cc(OC)c1OC (stereo unspecified) when you have a moment?
Reply text: inactive

Inquiry: Test call for this molecule, please: "COc1cccc(-c2nc(-c3ccc(NC(=O)C(C)C)cc3)[nH]c2-c2ccnc(Br)c2)c1"
Reply text: inactive

Inquiry: I'd appreciate the recorded outcome for "O=C(CCc1nnc(-c2c(Cl)cccc2Cl)o1)c1nc2ccccc2[nH]1" from this test.
Reply text: inactive

Inquiry: For COc1ccc(N2C(=O)C(Oc3ccccc3)C2c2ccc(C)cc2)cc1 (stereo unspecified) , which call appears in the assay record?
Reply text: inactive

Inquiry: State the result this test recorded for "Cn1cc(-c2cc3ncnc(Nc4ccc(CC(=O)Nc5cc(C(C)(C)C)nn5C)cc4)c3s2)cn1" .
Reply text: inactive

Inquiry: // param item: "COc1ccc(-c2nnc(COc3ccc(Cl)cc3Cl)o2)cc1OC" ; yields the recorded call
Reply text: active

Inquiry: Query: recorded result category for N#CC1=C(N)Oc2c(sc3c(Br)cccc23)C1c1ccc(Br)cc1 (stereo unspecified) in this test
Reply text: inactive

Inquiry: # fetch the recorded call for "Cc1ccc2sc3c(NCCCN)nc4ccccc4c3c(=O)c2c1" here
Reply text: inactive

Inquiry: // outcome(item) with item = COc1ccc(C2NC(=O)C(C#N)c3c2sc2c(F)cccc32)c(OC)c1 (stereo unspecified)
Reply text: inactive

Inquiry: Which result was noted for this molecule in the test: COC1=C(C)C(=O)c2c(c(CCCl)c3n2CCC3O)C1=O (stereo unspecified)
Reply text: active

Inquiry: // param item: "C/C(=N/NC(N)=S)c1sc(Nc2cccc(Cl)c2)nc1C" ; yields the recorded call
Reply text: inactive

Inquiry: Record lookup: outcome of this test for "COc1cc(/C=C/C(=O)/C=C/c2cc(OC)c3c(c2OC)OCO3)c(OC)c2c1OCO2" ?
Reply text: inactive

Inquiry: In this assay, the call recorded for "Cc1ccccc1C(=O)NN" was what?
Reply text: inactive

Inquiry: Per the records of this test, what outcome belongs to "CSc1ccc2c(c1)c(CCN)c(C)n2Cc1ccc(Cl)c(Cl)c1" ?
Reply text: active

Inquiry: Called result for "COc1ccn2c(C(C)=O)cc(C(=O)c3ccc4c(c3)Sc3ccccc3N4)c2c1"
Reply text: inactive

Inquiry: What is the recorded call for this molecule in the test? "Cc1cccc(NCc2cn(-c3ccc(C(=O)O)cc3)nc2-c2ccc(C(=O)O)cc2)n1"
Reply text: inactive

Inquiry: Could you please tell me the result logged for "CC(C)OC(=O)Nc1ccc(-c2nc(-c3cccc(OCCN4CCOCC4)c3)c(-c3ccnc(Br)c3)[nH]2)cc1" in this assay?
Reply text: inactive

Inquiry: Hi, sorry to bother you, what did the test record for "C[C@]12CC[C@@H]3c4cc(OC(F)F)c(OS(N)(=O)=O)cc4CC[C@H]3[C@@H]1CC[C@@H]2O" ?
Reply text: inactive

Inquiry: Returns: the outcome recorded for O=CN1N=C(c2ccc(Nc3ccnc4cc(Cl)ccc34)cc2)CC1c1ccccc1 (stereo unspecified) in this assay.
Reply text: inactive

Inquiry: Record lookup: outcome of this test for "Cc1cc(=O)oc2cc(OC(=O)CN3CCN(C)CC3)ccc12" ?
Reply text: inactive

Inquiry: Kindly provide the recorded test outcome for the following molecule: "COc1ccc(S(=O)(=O)n2c3ccccc3n3ncc(-c4nnc(C)o4)c23)cc1"
Reply text: inactive

Inquiry: What was the test verdict on "C=C1CC[C@@]2(C#N)[C@H]3[C@H](CC[C@@H]2C)[C@@H](C)C[C@@H](CC(C)(C)C#N)[C@H]13" ?
Reply text: inactive

Inquiry: Just curious, what result did "NCCCNc1nc2ccc(Cl)cc2c2c(=O)c3cc(F)ccc3sc12" get here?
Reply text: inactive

Inquiry: Lab log entry: "O=C(Nn1c(NCC(=O)N2c3ccccc3Sc3ccccc32)nnc1-c1ccc(O)cc1)c1ccccc1" — outcome as called in the assay?
Reply text: inactive

Inquiry: Lab log entry: "COc1cc(Nc2nc(NCCN)nc3cc[nH]c(=O)c23)cc(OC)c1" — outcome as called in the assay?
Reply text: inactive

Inquiry: I'd appreciate the recorded outcome for O=C(CS(=O)c1oc(-c2cccs2)nc1S(=O)(=O)c1ccc(Br)cc1)c1ccccc1 (stereo unspecified) from this test.
Reply text: inactive

Inquiry: Could you check what this test reported for "CN1CCN(c2ccc(-c3cnc4c(-c5csc6ccccc56)cnn4c3)cc2)CC1" ?
Reply text: active

Inquiry: Given C=C(C)C1CCC2(C)OC2C1 (stereo unspecified) , state the outcome it received in this test.
Reply text: inactive

Inquiry: Assay outcome for "CCc1cccc2c1S/C(=C/c1ccc(Cl)cc1)C2=O" : what was it?
Reply text: inactive

Inquiry: Hey, what did the test say about "O=C1c2cccc3cccc(c23)C(=O)N1Nc1nc(N2CCOCC2)nc(N2CCN(c3ccccc3)CC2)n1" ?
Reply text: inactive

Inquiry: Identify the outcome logged in this assay for the molecule shown: "CCOC(=O)c1[nH]c(C)c(C(=O)OCc2ccccc2C#N)c1C"
Reply text: inactive

Inquiry: Look up the recorded call for "BrCCCc1n(Cc2ccc3ccccc3c2)c2ccccc2[n+]1Cc1ccc2ccccc2c1" in this test.
Reply text: active

Inquiry: State the result this test recorded for "COc1ccc(C(=O)N=Nc2c(O)n(C)c3ccccc23)cc1" .
Reply text: inactive

Inquiry: # fetch the recorded call for "Cc1ccc(-c2nn(C)c(=O)c3noc(-c4ccc(C)cc4)c23)cc1" here
Reply text: inactive
